# System: 786-0 renal
# protocol: NCI tumour cell line growth inhibition, 48 h
Where a SMILES comes first, the peptide text is derived from it. [ ]: non-standard residue; d: D form. The star is where a group is joined. X28 = COC1=CC(=O)N(C(=O)[C@@H](O*)C(C)C)[C@H]1Cc1ccccc1; Bn2Val = CC(C)[C@@H](C(=O)*)N(Cc1ccccc1)Cc1ccccc1; NMeV = CN[C@H](C(=O)O)C(C)C; dNMeA = CN[C@H](C)C(=O)O
quantity: TGI

Completed entries (count: 3):
| compound | TGI |
| --- | --- |
| O=C1CCCCC/C1=C\c1cccc([N+](=O)[O-])c1 | > 100 µM |
| CN(C)CCNC(=O)c1cccc2nc3ccc4cccnc4c3nc12 | 10.9 µM |
| COC1=CC(=O)N(C(=O)[C@@H](OC(=O)[C@@H](C)N(C)C(=O)[C@@H]2CCCN2C(=O)[C@H](C(C)C)N(C)C(=O)[C@@H](NC(=O)[C@H](C(C)C)N(Cc2ccccc2)Cc2ccccc2)C(C)C)C(C)C)[C@H]1Cc1ccccc1 (Bn2Val-V[NMeV]P[dNMeA]-X28) | > 100 µM |

[Q] GET /values?readout=TGI&system=786-0 renal&item= c1ccc(C(c2cccc3c2ccc2ccccc23)C(c2ccccc2)c2cccc3c2ccc2ccccc23)cc1 (centres undefined)
[A] > 100 µM
